experimentalSystem: Adenosine receptor A1 (Rattus norvegicus, UniProt P25099)
Sequence (P25099 whole entry): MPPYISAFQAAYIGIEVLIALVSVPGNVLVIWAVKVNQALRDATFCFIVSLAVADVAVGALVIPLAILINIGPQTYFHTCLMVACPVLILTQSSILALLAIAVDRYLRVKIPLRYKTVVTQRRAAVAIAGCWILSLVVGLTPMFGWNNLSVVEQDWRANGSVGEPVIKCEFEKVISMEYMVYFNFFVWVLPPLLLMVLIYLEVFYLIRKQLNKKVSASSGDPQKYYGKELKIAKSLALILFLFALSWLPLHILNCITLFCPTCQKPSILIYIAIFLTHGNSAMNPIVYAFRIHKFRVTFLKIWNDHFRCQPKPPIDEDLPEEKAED
Lab note: anything with Ki below 4 nM is marked met; values at 4 nM or higher are marked not met.

> print(dat)
                               smilesrecord  labelclass
1  CCCCn1c(=O)[nH]c2[nH]c(-c3ccc(S(=O)(=O)Oc4ccc([N+](=O)[O-])cc4)cc3)nc2c1=O         met
2  CCCn1c(=O)c2[nH]c(-c3ccc(S(=O)(=O)Oc4ccc([N+](=O)[O-])cc4)cc3)nc2n(CCC)c1=O         met
3  CCCn1c(=O)c2[nH]c(-c3ccc(S(=O)(=O)Oc4cccc([N+](=O)[O-])c4)cc3)nc2n(CCC)c1=O     not met
4  CCCn1c(=O)[nH]c2nc(-c3ccc(S(=O)(=O)O)cc3)[nH]c2c1=O     not met
5  CCCCn1c(=O)[nH]c2nc(-c3ccc(S(=O)(=O)Oc4cccc([N+](=O)[O-])c4)cc3)[nH]c2c1=O     not met

====

experimentalSystem: Adenosine receptor A2a (Rattus norvegicus, UniProt P30543)
Sequence (P30543 whole entry): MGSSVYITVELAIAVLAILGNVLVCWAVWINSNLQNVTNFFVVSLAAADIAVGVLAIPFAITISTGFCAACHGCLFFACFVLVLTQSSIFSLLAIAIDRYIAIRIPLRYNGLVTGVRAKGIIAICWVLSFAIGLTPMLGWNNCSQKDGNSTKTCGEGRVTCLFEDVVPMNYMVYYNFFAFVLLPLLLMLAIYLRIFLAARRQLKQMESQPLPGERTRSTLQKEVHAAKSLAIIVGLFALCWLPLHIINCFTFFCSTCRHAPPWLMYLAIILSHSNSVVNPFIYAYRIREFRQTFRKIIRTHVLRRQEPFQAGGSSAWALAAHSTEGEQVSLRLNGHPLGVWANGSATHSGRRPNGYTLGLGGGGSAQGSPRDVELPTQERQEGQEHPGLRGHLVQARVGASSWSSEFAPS
testName: Displacement of [3H]MSX-2 from adenosine A2A receptor of rat brain striatal membranes
Format: cell membranes, Membrane
pKi: −log10 of the molar value.
measurementType: pKi

> print(dat)
                                smilesrecord  measurementtype  testvalue
 1  Cn1c(=O)c2nc(-c3ccc(S(=O)(=O)Oc4ccc([N+](=O)[O-])cc4)cc3)[nH]c2n(C)c1=O              pKi       7.00
 2  CCCCn1c(=O)[nH]c2[nH]c(-c3ccc(S(=O)(=O)Oc4ccc([N+](=O)[O-])cc4)cc3)nc2c1=O              pKi       7.11
 3  CCCn1c(=O)[nH]c2nc(-c3ccc(S(=O)(=O)Oc4ccc([N+](=O)[O-])cc4)cc3)[nH]c2c1=O              pKi       7.13
 4  Cn1c(=O)[nH]c2[nH]c(-c3ccc(S(=O)(=O)Oc4ccc([N+](=O)[O-])cc4)cc3)nc2c1=O              pKi       7.47
 5  Cn1c(=O)[nH]c2[nH]c(-c3ccc(S(=O)(=O)Oc4cccc([N+](=O)[O-])c4)cc3)nc2c1=O              pKi       7.20
 6  CCCCn1c(=O)[nH]c2nc(-c3ccc(S(=O)(=O)Oc4cccc([N+](=O)[O-])c4)cc3)[nH]c2c1=O              pKi       7.68
 7  CCCn1c(=O)[nH]c2[nH]c(-c3ccc(S(=O)(=O)Oc4cccc([N+](=O)[O-])c4)cc3)nc2c1=O              pKi       7.27
 8  CCCn1c(=O)c2[nH]c(-c3ccc(S(=O)(=O)Oc4ccc([N+](=O)[O-])cc4)cc3)nc2n(CCC)c1=O              pKi       7.80
 9  CCCn1c(=O)c2[nH]c(-c3ccc(S(=O)(=O)Oc4cccc([N+](=O)[O-])c4)cc3)nc2n(CCC)c1=O              pKi       7.55
10  Cn1c(=O)c2[nH]c(-c3ccc(S(=O)(=O)Oc4cccc([N+](=O)[O-])c4)cc3)nc2n(C)c1=O              pKi       6.93
